Test system: COLO 205 colon
Test: NCI-60 one-dose screen, 48 h (100 = growth as untreated, 0 = no growth, -100 = all killed)
Conditions: 10 µM unless noted
The panel holds about 83,000 compounds, 20% with a hit somewhere; the sample as a whole holds those more often. Calls of active or inactive are those of the source. How the source made its calls: active means growth percent below 10; inactive means the rest.
Experimental endpoint: growth

// worked examples, growth included
Compound	Study target	growth
CN1CCN(Cc2ccc(NC(=O)c3cncc(C#Cc4cnn5ccccc45)c3)cc2C(F)(F)F)CC1	COLO 205 colon	-33.6% (active)
O=C1NC(=C(Cl)Cl)/C(=N/S(=O)(=O)N2CCCCC2)N1	COLO 205 colon	-84.5% (active)
Cn1cc(-c2nonc2-c2c[nH]c3ccccc23)c2ccccc21	COLO 205 colon	-22.7% (active)
O=C(/C=C/c1ccc(Br)cc1)c1ccc(-n2cc(CN3CCN(c4cc5c(cc4F)c(=O)c(C(=O)O)cn5C4CC4)CC3)nn2)cc1	COLO 205 colon	107% (inactive)

Query :: Using the record for COc1ccc(Cl)cc1Nc1nc(C(F)(F)F)ccc1C(=O)N/N=C/c1ccccc1Cl , state its measured growth.
Result :: -59.5% (active)

Query :: Give the measured growth for O=C1CC2C=CCN2C=C1NC(=O)C1CCCCC1 (configuration not stated)
Result :: 105% (inactive)

Query :: Please supply the value of reported growth for the item CCN=C1C=CC(=C(c2ccc(N(C)C)cc2)c2ccc(N(C)C)cc2)c2ccccc21
Result :: -79% (active)

Query :: Please report growth for the following compound: COc1ccc(Nc2ncccc2NC(=O)c2cn(Cc3cccc(Oc4ccccc4)c3)nn2)cc1OC
Result :: 81.4% (inactive)

Query :: Determine its reported growth: CCCCc1oc2ccccc2c1C(=O)c1ccc(O)cc1
Result :: 118% (inactive)

Query :: Indicate the recorded growth value for this compound: CC(C)(CO)N(CCO)CCO
Result :: 123% (inactive)

Query :: Output measured growth for this item: CN1CCN(C(=O)c2cc(-c3ccc4ncnc(N5CCc6cc(F)c(Cl)cc65)c4c3)cnc2N)CC1
Result :: 3.92% (active)

Query :: Write down growth measured for item CCOC(=O)c1c2c(n3c1NCC3)-c1ccccc1C2=O
Result :: 110% (inactive)
